- assaySystem: T1, 4H3277-bN
- T1 chain: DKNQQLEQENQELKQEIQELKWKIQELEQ
- assayMethodText: two-hybrid library CCNG1;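 also: natural log of median RNA to DNA barcode read ratio; higher means stronger binding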
Class field: derived from interaction score; ranges LOW = under -1, MID = from -1 up to -0.5, HIGH = -0.5 and over

These solved cases illustrate the format of a correct answer.
DKIQQLEQENQELEQKIQELKWKNQELEQ [4H2223-bN] ... HIGH
DKIQQLKQENQELEQENQELKWKIQELEQ [4H2717-bN] ... LOW
DENQQLKQKIQELKQKIQELKWENQELEQ [4H1899-bN] ... LOW
DEIQQLEQENQELEQKNQELEWKIQELKQ [4H182-bN] ... HIGH
DENQQLEQKIQELKQEIQELEWENQELKQ [4H1348-bN] ... HIGH
DKIQQLEQKNQELEQKIQELKWEIQELEQ [4H2473-bN] ... LOW
DENQQLKQKNQELKQEIQELEWEIQELEQ [4H1985-bN] ... LOW
DKNQQLEQENQELKQEIQELKWKIQELEQ [4H3277-bN] ... HIGH
DEIQQLEQEIQELKQKNQELKWEIQELEQ [4H121-bN] ... LOW
DKIQQLKQKNQELKQKNQELEWEIQELEQ [4H3057-bN] ... MID

QUERY: # bin lookup: classify DKIQQLKQKIQELKQKIQELEWENQELEQ [4H2915-bN] by its interaction score
RESULT: LOW

QUERY: Which band does DKIQQLKQKIQELEQENQELEWKNQELEQ [4H2839-bN] fall in?
RESULT: MID
